# Protocol description: [11C]GSK1034702 PET brain distribution and kinetics in anaesthetised baboons
# Format: in vivo, Papio anubis
# Assay setup: both sexes, baboon (Papio anubis), whole brain, intravenous, Papio anubis, mean ± SD of three scans, two-tissue compartmental model; read-out: whole brain VT
Quantity kind: Kp

[
  {
    "Molecule": "Cc1cc(F)c2[nH]c(=O)n(C3CCN(C4CCOCC4)CC3)c2c1",
    "Kp": 3.97
  },
  {
    "Molecule": "[11CH3]c1cc(F)c2[nH]c(=O)n(C3CCN(C4CCOCC4)CC3)c2c1 [[^11C]GSK1034702]",
    "Kp": 3.97
  }
]
